Test system: PA-1
Assay: Primary qHTS to identify gynecologic anti-cancer compounds using libraries of approved drugs and bioactive compounds (AID 1345084); also: % is scaled to controls: 0 for no effect and ±100 for the full control effect; nearly all actives have a fitted effect of over 55% in size
Settings: Gynecologic cancer cell panel viability, ATPlite luminescence, 48 h; series mostly up to 57.5 µM
Results filed as inconclusive are left out. Activity calls are given as the source filed them. Calls follow the shape of the dose curve; as a rule, active = well fitted cell-killing curve with a large enough effect; inconclusive = small, poorly fitted or top-dose-only effect, or effect the other way; inactive = flat fitted curve, though single readings scatter.
observed_property: activity change, negative = cytotoxicity

Some solved entries appear below for comparison.
CN1C(=O)N(c2cc(Cl)cc(Cl)c2)C(=O)[C@@]1(C)Cc1ccc(Br)cc1 :: inactive
CC1OC(OC2CCC3(C)C(CCC4(C)C3C=CC35OCC6(CCC(C)(C)CC63)CCC45C)C2(C)CO)C(OC2OC(CO)C(O)C(O)C2O)C(O)C1OC1OC(CO)C(O)C(O)C1O (stereo not drawn) :: 5.66% [at 11.6 µM] (inactive)
C[C@]1(OC(=O)/C=C/c2ccccc2)C[C@@H](O)[C@]2(O)C=CO[C@@H](O[C@@H]3O[C@H](CO)[C@@H](O)[C@H](O)[C@H]3O)[C@@H]21 :: inactive
C=C(C(=O)O)[C@@H]1CC[C@@]2(C)CC[C@@H](O)C(=C)C2C1 (stereo partly drawn) :: inactive
CC1=C2C(=O)C=C(CO[C@@H]3O[C@H](CO)[C@@H](O)[C@H](O)[C@H]3O)[C@@H]2[C@H]2OC(=O)[C@H](C)[C@@H]2[C@@H](O)C1 :: inactive
C[C@@H]1O[C@@H](O[C@H]2[C@H](O[C@H]3[C@H](O[C@H]4CC[C@@]5(C)C(CC[C@]6(C)C5CC=C5[C@@H]7CC(C)(C)C[C@@H](O)[C@]7(C)CC[C@]56C)[C@@]4(C)CO)O[C@H](C(=O)O)[C@@H](O)[C@@H]3O)O[C@H](C(=O)O)[C@H](O)[C@@H]2O)[C@H](O)[C@H](O)[C@H]1O (stereo partly drawn) :: 0.484% [at 11.6 µM] (inactive)
CC(=O)c1[nH]cc(CCC(=O)O)c1CC(=O)O :: inactive
CC1C2=CC(=O)OC2(O)CC2C1CCC1C(C)(C)CCC(O)C21C (stereo not drawn) :: inactive

Hi there! I need activity change, negative = cytotoxicity for each item below, if you can.
1. O=C(O)CC1(O)C(=O)Nc2ccccc21 (stereo not drawn)
2. O=C(O)c1ccnc2cc(-c3nc4ccccc4n3CCN3CCCCC3)sc12
3. O=C(OCC1=C[C@@H](O)[C@@H]2C=CO[C@@H](O[C@@H]3O[C@H](CO)[C@@H](O)[C@H](O)[C@H]3O)[C@H]12)c1ccc(O)cc1
4. CC(=O)OCC1OC(OC2COC(OC3COC(OC4C(OC5C(CO)OC(OC6CCC7(C)C(CCC8(C)C7CC=C7C9CC(C)(C)CCC9(C(=O)OC9OC(CO)C(O)C(O)C9OC9OCC(OC%10OCC(O)(CO)C%10O)C(O)C9O)C(O)CC78C)C6(C)C)C(O)C5O)OCC(O)C4O)C(O)C3O)C(O)C2O)C(OC(=O)/C=C/c2ccccc2)C(O)C1OC(C)=O (stereo not drawn)
5. C=C1C(=O)OC2CC(COC(=O)C(C)C)=C(C(C)CCCOC(C)=O)[C@@H](OC(C)=O)C12 (stereo partly drawn)

1. inactive
2. inactive
3. inactive
4. -23.4% [at 6.55 µM] (inactive)
5. inactive

---

Molecular target: Luciferin 4-monooxygenase (Photinus pyralis) (UniProt P08659)
Experiment: Primary firefly luciferase (FLuc) qHTS assay for identification of artifact compounds. (AID 1845220); also: nearly all actives have a fitted effect of over 60% in size;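 as to activity change, negative = inhibition: plate controls were DMSO vehicle for no effect and no enzyme for full effect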
Details: purified firefly luciferase, luminescence, 5 min; series mostly up to 54.1 µM
Calls of active or inactive are those of the source. Calls come from the whole dose curve; as a rule, active = well fitted inhibition curve with a large enough effect; inconclusive = small, poorly fitted or top-dose-only effect; inactive = flat fitted curve, though single readings scatter.
observed_property: activity change, negative = inhibition

Some solved entries appear below for comparison.
Cc1sc(C)c(C(=O)NC2(c3ccc(C(=O)O)cc3)CC2)c1Cc1ccc(C(F)(F)F)cc1 :: inactive
CN1CCc2cc(Cl)c(O)cc2[C@@H](c2cccc3c2OCC3)C1 :: inactive
C[C@@H]1O[C@@H](OC[C@H]2O[C@@H](OCc3ccccc3)[C@H](O)[C@@H](O)[C@@H]2O)[C@H](O)[C@H](O)[C@H]1O :: inactive
C[C@H]1CC[C@H]2[C@@H](C=C[C@@](C)(O)[C@]2(C)C(=O)CCO)C1 :: inactive
COc1cccc(C)c1C(=O)O[C@@H]1C[C@H](O[C@H]2[C@H](O)C[C@H](O[C@@H]3CCC[C@H]4[C@H]3C=C[C@@H]3CCCC/C=C/[C@H]5C=C(C(=O)O)[C@@H](C)C[C@@]56OC(=O)C(=C6O)OC(=O)[C@@]34C)O[C@@H]2C)O[C@H](C)[C@H]1O :: 4.15% [at 11.6 µM] (inactive)
C=C1CCC(OC(C)=O)C2(C)CC3OC(=O)C(C)=C3CC12 (configuration not stated) :: inactive

What does the data say about its activity change, negative = inhibition? Entry: O=C(O)CCc1cc2ccoc2cc1O[C@@H]1O[C@H](CO)[C@@H](O)[C@H](O)[C@H]1O
inactive
